Value source: the supplement of paper PMC11865577

System: TO-3-N3 (biotin conjugate)
EXPERIMENT DESCRIPTION: pull-down binding Z-score (relative to library population); higher = stronger binding
COND: RNA library: Library-2
TEST READOUT: pull-down binding Z-score

> print(dat)
                            monomer.sequence               test.readout  test.result
 1  UGGCCGCAAAUUGCACAAUUUGCCCCCA [SHAPE_invitro_SARS-CoV-2_Motif_532]  pull-down binding Z-score       -0.293
 2  CCCGUAGGACACCGAGGCUUAUGAAUAGGA [hsa-mir-6081]  pull-down binding Z-score        -0.16
 3  CCUGGUCAUGCAGAUCUCAGUGCCAAGGAGGCACAGGAUGUAAUCAUGGAAGUUGUUUUCCCUAACGAAGUGGGAGCCAGG  pull-down binding Z-score       -0.749
 4      UAGGAUUUGGGAGUUAUACUA [hsa-mir-5690]  pull-down binding Z-score       -0.528
 5     UUGGGAUCCACCUUUCUCUCGA [hsa-mir-196b]  pull-down binding Z-score        0.578
 6                   AUGAUGUUUCUUUUUUAGCACAU  pull-down binding Z-score       -0.696
 7   CUUCUGCUGCUCUUCAACCUGAAGAAGAGCAAGAAGAAG  pull-down binding Z-score       -0.349
 8  CCAUUUACUUGAACCUUUAGGAGUGA [hsa-mir-489]  pull-down binding Z-score        0.389
 9  CAGCCAUGACCUGACCUUCUGUCUG [hsa-mir-4677]  pull-down binding Z-score       -0.163
10  GCGGUUUUUGCCAUUACUUUUCAUUUUUACCAUUAAAAGUAAUGGCAAAAAGCAU [hsa-mir-548q]  pull-down binding Z-score       -0.964

###

pull-down binding Z-score values by entry
Tested on: TO-3-N3-2 (biotin conjugate)
EXPERIMENT DESCRIPTION: pull-down binding Z-score (relative to library population); higher = stronger binding
COND: RNA library: Library-2
TEST READOUT: pull-down binding Z-score

> print(dat)
                            monomer.sequence           experimental.system  test.result
 1  CUUCCGAGUCAUAGGAAACUAUGACAUACAGAUCAACAGGGGCUCGCUUGAGCCCCCCAGCCAGUCGGAGG [mMTR1]  TO-3-N3-2 (biotin conjugate)       -0.458
 2  GAUCUAAAACCAGUC [DMSMaPseq_invitro_SARS-CoV-2_Motif_121]  TO-3-N3-2 (biotin conjugate)       0.0363
 3    CUCAUUGUUGAAUGGAAUGAGAU [hsa-mir-3145]  TO-3-N3-2 (biotin conjugate)       -0.319
 4                        GCAUGAUGUUUCAUCUGC  TO-3-N3-2 (biotin conjugate)       0.0512
 5  AUAGUUUUAGGGUCAUACCCCAUCUUGGAGAUAACUAU [hsa-let-7f-2]  TO-3-N3-2 (biotin conjugate)      0.00457
 6  CCUUAUAAUUCACAGAAUGCUGUAGCCUCAAAGAUUUUGGGACUACCAACUCAAACUGUUGAUUCAUCACAGG [DMSMaPseq_invitro_SARS-CoV-2_Motif_319]  TO-3-N3-2 (biotin conjugate)       -0.324
 7   AGUUCGCUUUUAUUAAUGACGAAUA [hsa-mir-410]  TO-3-N3-2 (biotin conjugate)      -0.0101
 8       UGCUGUGAGCUAGCCAGCAG [hsa-mir-5693]  TO-3-N3-2 (biotin conjugate)       0.0593
 9  GAAAUUUGACACCUUCAAUGGGGAAUGUCCAAAUUUU [SHAPE_invitro_SARS-CoV-2_Motif_22]  TO-3-N3-2 (biotin conjugate)       -0.434
10      GUGAGCGCAGGUCUUUGGCAC [hsa-mir-4450]  TO-3-N3-2 (biotin conjugate)         0.39
11          CCUCCCCCAGUGCCAGG [hsa-mir-3196]  TO-3-N3-2 (biotin conjugate)       -0.331
12  GCAGUCCUGUGGGAAUGAGAGAUGCCAAACUGGACCUGC [hsa-mir-3972]  TO-3-N3-2 (biotin conjugate)        0.373
13  GGGUAGGGUUUGGGGGAGAGUGUGGGCUGGGGUUCAGGGACA [pre-miRNA-1229_SNP_FL]  TO-3-N3-2 (biotin conjugate)          7.5
14  GUAAUGAUCCAUUUUUGGGUGUUUAUUAC [DMSMaPseq_invitro_SARS-CoV-2_Motif_387]  TO-3-N3-2 (biotin conjugate)       -0.129
15  AGGUCCAGACAUGUUCCUCGGAACUUGUCGGCGUUGUCCU  TO-3-N3-2 (biotin conjugate)       -0.441
16         CAGUUUACUCACACCUUUUGCUCGUUGCUGCUG  TO-3-N3-2 (biotin conjugate)       -0.285
17      CCCACCCUGAGUUUUGGUGGG [hsa-mir-6508]  TO-3-N3-2 (biotin conjugate)        -0.26
18  AGUAUGGAUUAAAUUUAUAUUUUCCUCGAUACU [hsa-mir-8084]  TO-3-N3-2 (biotin conjugate)        0.212
19  CCUGUGAACAGAUUGCUGACUCCCAGCAUCGGUCUCAUAGG [IAV_invivo_M1_M2_7_Motif_10+IAV_invivo_M1_M2_7_Motif_10]  TO-3-N3-2 (biotin conjugate)       -0.605
20  UAGUUACACGGUGUUUAAACCGUGUUUGUACUA [SHAPE_invivo_SARS-CoV-2_Motif_139]  TO-3-N3-2 (biotin conjugate)       -0.496
